# Tested on: NanoLuc luciferase (engineered Oplophorus gracilirostris luciferase)
# Assay info: Confirmatory Nanoluciferase (NLuc) qHTS assay for identification of artifact compounds. Further: % of control where 0% means no effect.
# Stated conditions: secreted NLuc in S16 cell medium, luminescence, 5 min; series mostly up to 39 µM
# From the text: PI: Alexander Tropsha Ph.D. UNC Eshelman School of Pharmacy University of North Carolina, Chapel Hill, North Carolina Hits from high-throughput screening (HTS) of chemical libraries are often false positives due to their interference with the assay detection technology. […] Using these curated datasets, we developed and validated several Quantitative Structure-Interference Relationship (QSIR) models to predict nuisance behavior. […]
Results filed as inconclusive are left out. Activity calls are given as the source filed them. The call rests on the fitted dose curve; in most records, active means well fitted curve in the direction sought with a large enough effect; inconclusive means small, poorly fitted or top-dose-only effect, or another doubt; inactive means no such curve, though single readings can be large or run the other way.

{"columns": ["Smiles str", "Target entity", "activity change, negative = inhibition"],
 "data": [
  ["Cc1cc(NC(=O)Nc2cccc(-c3ccncc3)n2)ccc1Cl", "NanoLuc luciferase (engineered Oplophorus gracilirostris luciferase)", "inactive"],
  ["Cc1ccc(NC(=O)c2nc(-c3ccncc3)no2)c(Cl)c1", "NanoLuc luciferase (engineered Oplophorus gracilirostris luciferase)", "inactive"],
  ["CCOc1ccc(OCC)c(NS(=O)(=O)c2c(C)[nH]c(=O)[nH]c2=O)c1", "NanoLuc luciferase (engineered Oplophorus gracilirostris luciferase)", "inactive"]
]}

====

# Test system: NanoLuc luciferase (engineered Oplophorus gracilirostris luciferase)
# Assay info: Confirmatory Nanoluciferase (NLuc) qHTS assay for identification of artifact compounds. Further: % of control where 0% means no effect.
# Stated conditions: secreted NLuc in S16 cell medium, luminescence, 5 min; series mostly up to 39 µM
Inconclusive results are not listed. The source made the active and inactive calls. The call rests on the fitted dose curve; in most records, active means well fitted curve in the direction sought with a large enough effect; inconclusive means small, poorly fitted or top-dose-only effect, or another doubt; inactive means no such curve, though single readings can be large or run the other way.
Value kind: activity change, negative = inhibition

Here are 4 compounds together with their reported answers.
{"columns": ["Smiles str", "Target entity", "Result"],
 "data": [
  ["OC[C@H]1O[C@@H](O[C@@H]2OC=C[C@H]3[C@H](O)[C@@H]4O[C@]4(CO)[C@@H]23)[C@H](O)[C@@H](O)[C@@H]1O", "NanoLuc luciferase (engineered Oplophorus gracilirostris luciferase)", "inactive"],
  ["C[C@@H]1O[C@@H](O[C@@H]2[C@@H](O)[C@H](OCCc3ccc(O)c(O)c3)O[C@H](CO[C@@H]3O[C@H](CO)[C@@H](O)[C@H](O)[C@H]3O)[C@H]2OC(=O)/C=C/c2ccc(O)c(O)c2)[C@H](O)[C@H](O)[C@H]1O", "NanoLuc luciferase (engineered Oplophorus gracilirostris luciferase)", "inactive"],
  ["CC(C)C[C@H](NC(=O)[C@H](Cc1ccccc1)NC(=O)CNC(=O)CNC(=O)[C@@H](N)Cc1ccc(O)cc1)C(=O)N[C@@H](CCCN=C(N)N)C(=O)N[C@@H](CCCN=C(N)N)C(=O)N[C@@H](CCC(N)=O)C(=O)N[C@@H](Cc1ccccc1)C(=O)N[C@@H](CCCCN)C(=O)N[C@H](C(=O)N[C@H](C(=O)N[C@H](C(=O)O)[C@@H](C)O)C(C)C)C(C)C", "NanoLuc luciferase (engineered Oplophorus gracilirostris luciferase)", "9.86% [at 4.32 µM] (inactive)"],
  ["Cc1ccc(-c2nc(=Nc3ccccc3)sn2-c2ccccc2)cc1", "NanoLuc luciferase (engineered Oplophorus gracilirostris luciferase)", "inactive"]
]}

Consider the record given below.
(Q) Recorded activity change, negative = inhibition for COc1ccc(NC(=O)c2csnn2)cc1Cl with NanoLuc luciferase (engineered Oplophorus gracilirostris luciferase), please?
(A) inactive
